system: human TLR7 (Homo sapiens, UniProt Q9NYK1)
Construct: HA; host or cells: 293XL-hTLR7-HA (HEK293)
Sequence (Q9NYK1 27-1049): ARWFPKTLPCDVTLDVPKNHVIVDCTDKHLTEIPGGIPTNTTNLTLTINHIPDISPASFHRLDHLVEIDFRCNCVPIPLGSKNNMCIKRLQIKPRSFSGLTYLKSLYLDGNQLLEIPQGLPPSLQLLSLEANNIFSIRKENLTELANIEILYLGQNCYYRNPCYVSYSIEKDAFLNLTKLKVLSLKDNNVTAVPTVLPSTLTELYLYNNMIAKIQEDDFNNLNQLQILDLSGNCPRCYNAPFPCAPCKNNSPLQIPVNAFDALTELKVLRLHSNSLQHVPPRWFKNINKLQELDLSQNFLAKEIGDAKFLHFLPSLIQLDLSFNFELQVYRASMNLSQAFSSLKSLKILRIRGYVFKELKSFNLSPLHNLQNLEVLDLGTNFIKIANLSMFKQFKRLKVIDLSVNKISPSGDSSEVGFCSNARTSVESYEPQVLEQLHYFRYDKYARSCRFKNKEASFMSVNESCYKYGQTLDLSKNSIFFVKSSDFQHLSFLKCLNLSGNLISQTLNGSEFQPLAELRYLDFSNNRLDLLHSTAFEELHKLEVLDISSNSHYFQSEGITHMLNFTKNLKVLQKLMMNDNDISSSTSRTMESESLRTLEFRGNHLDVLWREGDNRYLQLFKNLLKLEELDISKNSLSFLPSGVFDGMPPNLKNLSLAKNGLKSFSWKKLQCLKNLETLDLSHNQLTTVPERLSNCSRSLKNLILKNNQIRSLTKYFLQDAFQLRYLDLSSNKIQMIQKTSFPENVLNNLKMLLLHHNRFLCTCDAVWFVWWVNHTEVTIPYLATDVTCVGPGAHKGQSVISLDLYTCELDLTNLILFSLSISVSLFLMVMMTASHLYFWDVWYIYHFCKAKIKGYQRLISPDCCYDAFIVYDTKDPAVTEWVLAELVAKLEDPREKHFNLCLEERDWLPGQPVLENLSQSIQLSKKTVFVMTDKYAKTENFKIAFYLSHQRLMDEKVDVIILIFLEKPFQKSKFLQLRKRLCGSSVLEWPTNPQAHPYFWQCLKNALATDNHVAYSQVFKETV
test_protocol: HEK-TLR7 NF-κB-luciferase reporter, R848 stimulation
Format: cell-based
setup_conditions: ASO 500 nM; relative to R848 only, given as fraction
Description: In such examples, inhibition of TLR7 activity can be identified by observation of an overall decreased TLR7 response of the cell population, or a lower proportion of cells having TLR7-positive activity as compared to positive control condition in which cells are treated with TLR7 agonist in the absence of the oligonucleotide (or in the presence of an appropriate control inhibitory agent). […] TLR7 activity can be determined by a luciferase assay, which measures activated NF-κB by luminescence. […]
endpoint_name: TLR7 500 nM (averaged NF-κB-Luciferase level relative to R848 condition)
Answers are plain numbers.

Below, 2 sequences whose answers are already recorded.
TGTGATGGCCTCCCAT (antisense; LNA-modified, pattern not given here) [HPRT LNA-334 V1]: 0.090
TGGTGGCCACCCATCT (antisense; LNA-modified, pattern not given here) [CTNN2B-2479 LNA V1]: 0.393

// below: TLR7 500 nM (averaged NF-κB-Luciferase level relative to R848 condition) requested for another sequence
## Input Lab note: need TLR7 500 nM (averaged NF-κB-Luciferase level relative to R848 condition) for CAACACTTCGTGGGGT (antisense; LNA-modified, pattern not given here) [HPRT LNA-667 V1] on human TLR7 (Homo sapiens, UniProt Q9NYK1), anyone have it?
## Output 0.476

Where these numbers come from: patent US20240384268A1
